Target: T1, His-tagged cynomolgus monkey TIGIT (Acro Biosystems #TIT-05223) (cynomolgus monkey, UniProt A0A7N9I9V4 89-209)
T1 construct: Bought protein; also called cyno TIGIT; cynomolgus TIGIT; not shown: His tag
T1 sequence (A0A7N9I9V4 entry or part of it): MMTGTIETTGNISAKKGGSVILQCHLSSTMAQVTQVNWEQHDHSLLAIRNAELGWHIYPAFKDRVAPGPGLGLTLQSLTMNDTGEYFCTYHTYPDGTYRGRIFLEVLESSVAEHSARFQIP
Assay: SPR (Carterra LSA), scFv-Fc captured, His-TIGIT analyte
Procedure: Binding affinities of anti-TIGIT antibodies to human, cyno, and murine TIGIT were measured by Surface Plasmon Resonance (SPR) on a Carterra LSA instrument. Goat anti-human Fc antibody was amine coupled to a HC30M chip. ScFv-Fc supernatants were diluted 30-fold with HBSTE and were captured by the anti-human Fc coupled HC30M chip. A 1:2 dilution series of his-tagged human TIGIT, starting at 400 nM, was injected onto the chip for binding. […] Data were analyzed using the Carterra™ Kinetics software.
Threshold 10 nM: Kd strictly smaller gives rule met, otherwise rule not met.

# binder, assigned-label
records = [
    ("43586p2.D06 (scFv, V domains shown) VH: EVQLLESGGGLVQPGGSLRLSCAASGFTFSSYWMNWVRQAPGKGLEWVSGIYSGGTTYYADSVKGRFTISRDNSKNTLYLQMNSLRAEDTAVYYCTRENWKENNAMDVWGQGTTVTVSS VL: QSVLTQPPSASGTPGQRVTISCSGVTSNIASYHVYWYQQLPGTAPKLLIYLNSQRPSGVPDRFSASKSGTSASLAISGLQSEDEADYYCATWDGSLNGWVFGGGTKLTVL", "rule met"),
    ("43586p2.H02 (scFv, V domains shown) VH: EVQLLESGGGLVQPGGSLRLSCATSGFTVSDHYVSWVRQAPGKGLEWVSTSSSTNWNDGRTYYADSVKGRFTISRDNSENTLYLQMNSLRAEDTAVYYCAKGSYGMDVWGQGTTVTVSS VL: QSVLTQPPSASGTPGQRVTISCSASNSYIGTKYFYWYQQLPGTAPKLLIYLDSQRPSGVPDRFSGSKSGTSVSLAISGLQSEDEADYYCAFWDDHLHGWVFGGGTKLTVL", "rule not met"),
    ("43645p1.F11 (scFv, V domains shown) VH: EVQLLESGGGLVQPGGSLRLSCAASGFTFSSYWMSWVRQAPGKGLEWVSGIHISDSTYYADSVKGRFTISRDNSKNTLYLQMNSLRAEDTAVYYCAKGHTVLQYGMDVWGQGTTVTVSS VL: QSGLTQPPSASGTPGQRVTISCSGDISNTRNNYVSWYQQLPGTAPKLLIYRNSQRPSGVPDRFSGSKSATSASLAISGLQSEDEADYYCGTWDNTLNAWVFGGGTKLTVL", "rule not met"),
    ("43586p1.1.H8 (scFv, V domains shown) VH: EVQLLESGGGLVQPGGSLRLSCAASGFTFIDFWMSWVRQAPGKGLEWVSAISWIGDTYYYADSVKGRFTVSRDNSKNTVYLQMNSLRAEDTAVYYCAKHWTVYQYGMDVWGQGTTVTVSS VL: QSVLTQPPSASGTPGQRVIISCSGSTSDIETKYVSWYQQLPGTAPKLLIYGNHQRPSGVPDRFSGSKSGTSASLAISGLQSEDEADYYCTAWDNTLKSWVFGGGTKLTVL", "rule not met"),
    ("43586p1.2.E2 (scFv, V domains shown) VH: EVQLLESGGGLVQPGGSLRLSCAASGFTFTSYLMSWVRQAPGKGLEWVSTITWDGDRTYYADSVKGRFTISRDNSKNTLYLQMNSLRVGDTAVYYCAKHWTVFQYGMDVWGQGTTVTVSS VL: QSVLTQPASASGTPGQRVTISCSGTISNIETKYVSWYQQLPGTAPKLLIYGNHQRPSGVPDRFSGSKSGTSASLAISGLQSEDEADYYCASWENDLKSWVFGGGTKLTVL", "rule met"),
    ("43586p1.2.C12 (scFv, V domains shown) VH: ESGGGLVQPGGSLRLSCAASGFTFSDYLMTWVRQAPGKGLEWVSTITWDGDRTYYADSVKGRFTISRDNSKNTLYLQMNSLRAEDTAVYYCAKHWTVFQYGMDVWGQGTTVTVSS VL: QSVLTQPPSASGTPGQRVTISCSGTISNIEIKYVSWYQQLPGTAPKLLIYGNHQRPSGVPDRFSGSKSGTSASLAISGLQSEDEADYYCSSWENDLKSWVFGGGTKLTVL", "rule met"),
]
